# assay_details: in vitro stability in mouse brain homogenate
# Type: in vitro ADME
# stated_conditions: mouse brain homogenate (20% w/v)
# Procedure: In vitro stability studies in mouse brain homogenate (20% w/v) were conducted at 100 μM concentration of TRH analogues of Formula I wherein R^3 is an ester moiety. Analytical reversed-phase gradient HPLC with UV detection (λ=214 nm) was used to monitor the decline in the concentration in the compound added. The half-lives (t1/2) were 20 and 22 minutes for the TRH analogues derived from primary alcohols and 25 minutes and 70 minute for TRH analogues derived from SPSS. […]
Peptide text beside a SMILES is read from it.
measured_endpoint: half-life at 100 μM

[[record]]
molecule = "NC(=O)[C@@H]1CCCN1C(=O)[C@H](CCC(=O)OCc1ccccc1)NC(=O)[C@@H]1CCC(=O)N1 [benzyl ester] (HELM PEPTIDE1{[Glp].E.P.[am]}|CHEM1{[c1ccc(CO[*:1])cc1]}$PEPTIDE1,CHEM1,2:R3-1:R1$$$V2.0)"
measured_endpoint = "half-life at 100 μM"
observed_value = "> 120 min"

